targetDesc: Bromodomain-containing protein 4 (Homo sapiens)
assayOverview: Inhibition of BRD4 BD2 (unknown origin) by TR-FRET assay
propertyMeasured: pIC50
The meaning of pIC50 here: minus log10 of the concentration in molar units.

Field: example entries. Status: answers known.
compound=C[C@H]1C(=O)N(C)C=Cc2cc(OCCCCCCCOc3ccc4c(c3)C=CN(C)C(=O)[C@@H]4C)ccc21 targetdesc="Bromodomain-containing protein 4 (Homo sapiens)" experimentalvalue=7.40
compound=C[C@H]1C(=O)N(C)C=Cc2cc(OCCCCCOc3ccc4c(c3)C=CN(C)C(=O)[C@@H]4C)ccc21 targetdesc="Bromodomain-containing protein 4 (Homo sapiens)" experimentalvalue=7.70
compound=C[C@H]1C(=O)N(C)C=Cc2cc(OCCCCOc3ccc4c(c3)C=CN(C)C(=O)[C@@H]4C)ccc21 targetdesc="Bromodomain-containing protein 4 (Homo sapiens)" experimentalvalue=8.20

Incoming: Field request: pIC50 | item: COc1nnc2ccc(N3CCC(c4ccc(OCCN5CCN(C)C(=O)[C@H]5C)cc4)CC3)nn12
Outgoing: 5.50

Incoming: Field request: pIC50 | item: C[C@H]1C(=O)N(C)C=Cc2cc(OCCOc3ccc4c(c3)C=CN(C)C(=O)[C@@H]4C)ccc21
Outgoing: 7.50

Incoming: Field request: pIC50 | item: C[C@H]1C(=O)N(C)C=Cc2cc(CN3CCN(Cc4ccc5c(c4)C=CN(C)C(=O)[C@@H]5C)CC3)ccc21
Outgoing: 7.60

Incoming: Field request: pIC50 | item: CC1C(=O)N(C)C=Cc2ccc(OCCCCCOc3ccc4c(c3)C(C)C(=O)N(C)C=C4)cc21 (stereo not given)
Outgoing: 5.40

Incoming: Field request: pIC50 | item: C[C@@H]1C(=O)N(C)CCN1CCOc1ccc(C2CCN(c3ccc4nncn4n3)CC2)cc1
Outgoing: 4.40

Incoming: Field request: pIC50 | item: C[C@H]1C(=O)N(C)C=Cc2cc(OCCCOc3ccc4c(c3)C=CN(C)C(=O)[C@@H]4C)ccc21
Outgoing: 7.40
